Cited source for all entries: PubChem BioAssay AID1963829

# System: 935938-334-R-J1-PDC complex spheroid viability;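 further: spheroids exposed to drugs for seven days before viability read; 100% = DMSO vehicle control wells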
# measurement.protocol: Anticancer human tumor 935938-334-R-J1-PDC patient-derived small intestine adenocarcinoma cell line growth inhibition [POLQ]
# measurement.context: second compound 1 µM; first compound 0.0316 µM; active compounds read low
I'd be grateful if you could share measured viability, T/C for these entries.
Please give a number only; it is taken to be in %.

Challenge: Please look at this compound and report its viability, T/C: CC(C)n1c(=O)n(C)c2cnc3cc(F)c(-c4ccc(OCCCN5CCCCC5)nc4)cc3c21 + COC1C(OC(N)=O)C(O)C(Oc2ccc3c(O)c(NC(=O)c4ccc(O)c(CC=C(C)C)c4)c(=O)oc3c2C)OC1(C)C
Response given: 81.3

Challenge: Please look at this compound and report its viability, T/C: C=CCn1c(=O)c2cnc(Nc3ccc(N4CCN(C)CC4)cc3)nc2n1-c1cccc(C(C)(C)O)n1 + COC1C(OC(N)=O)C(O)C(Oc2ccc3c(O)c(NC(=O)c4ccc(O)c(CC=C(C)C)c4)c(=O)oc3c2C)OC1(C)C
Response given: 123

Challenge: Please look at this compound and report its viability, T/C: C=CCn1c(=O)c2cnc(Nc3ccc(N4CCN(C)CC4)cc3)nc2n1-c1cccc(C(C)(C)O)n1 + Nc1ccc(C#CCN(C(=O)Cc2ncc(C(F)(F)F)cc2C(F)(F)F)c2ccc(F)cc2)nn1
Response given: 82.3
